# assay-overview: Tmax in Sprague-Dawley rat at 5 mg/kg, po
# Format: ADME, organism-based
# Design: dose 5 mg/kg, route oral
# particulars: in vivo
outcome-measure: Tmax (min)
Numbers only, in min.

Use these answered entries as a reference point.
Exam item: Consider the compound shown here: Cn1c(C2CCOC2)nc(C(=O)NCc2ccc(F)cc2N2CCCCS2(=O)=O)c(O)c1=O (racemic) What is its recorded Tmax?
Marked response: 37.8

Exam item: For CSC1COCC1c1nc(C(=O)NCc2ccc(F)cc2)c(O)c(=O)n1C (racemic) , what is its reported Tmax?
Marked response: 100

As a next step, examine the compound that follows.
Exam item: Please look up its Tmax: Cn1c(C2CCOC2)nc(C(=O)NCc2ccc(F)cc2)c(O)c1=O (racemic)
Marked response: 40.2
